Catalogue of normalized growth values
Test: chemical genetic growth profiling, strain panel (AID 1159580);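 also: tested at 20 µM; growth read once vehicle control cultures reached saturation at 30 °C; 1 = growth at the plate median or of vehicle wells; lower values mean less growth of the strain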
Conditions: S. cerevisiae deletion strains, growth OD, locus YHR030C, strain SLT2, hits give low values
Hit rate of the full screen: of about 5,500 compounds, about 2,000 (36%) were called active. Inconclusive results (about 18%) are left out. The list shows a part of the results.
Form rule: numeric answer, no unit written next to it.

> print(dat)
                                   molecule  reported.result
1  CC1(C)C2CC(=O)[C@]3(C)C(CC[C@@]4(C)[C@H](c5ccoc5)OC(=O)[C@H]5O[C@]543)[C@@]2(C)C=C[C@@H]1O (stereo not given in full)             1.02
2         CCCCOC(=O)c1ccccc1C(=O)OCc1ccccc1            0.981
3  Cc1ccc(NC(=O)c2c(F)cccc2Cl)c(C(=O)Nc2ccc(F)cc2)c1             1.06
4  Cc1ccc(NS(=O)(=O)c2ccc(Cl)cc2)c(N=Cc2cc(Cl)cc(Cl)c2O)c1            0.118
5  Cc1ccc(NC(=O)c2ccccc2N=Cc2cc(Cl)cc(Cl)c2O)c(N=Cc2cc(Cl)cc(Cl)c2O)c1            0.213
6            CCCC[C@@H](CC)COC(=O)c1ccccc1O            0.979
7              CCCCOC(=O)c1ccccc1C(=O)OCCCC            0.969
8  Cc1ccc(NS(C)(=O)=O)cc1N=Cc1ccc(Cl)c(Cl)c1            0.891

# normalized growth of N#CCC(=O)Nc1ccccn1 = 1.24

response.value for CC(=O)Nc1ccc(S(=O)(=O)Nc2ccccc2Oc2ccc(Cl)cc2Cl)cc1 (field: normalized growth) = 1
